Here, each record is paired with measured binding signal data.
# Subject Of Test: MBP-FoxP1dN (Mus musculus, UniProt P58462 326-579)
# Sequence: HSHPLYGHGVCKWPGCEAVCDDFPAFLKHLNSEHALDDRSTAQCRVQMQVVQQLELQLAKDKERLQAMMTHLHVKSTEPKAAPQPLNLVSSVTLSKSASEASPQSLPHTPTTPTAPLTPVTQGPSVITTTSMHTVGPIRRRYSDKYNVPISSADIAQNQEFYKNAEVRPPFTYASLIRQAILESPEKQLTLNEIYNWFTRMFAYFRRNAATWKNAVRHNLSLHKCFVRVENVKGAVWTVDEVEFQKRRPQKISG
# Experiment Summary: PD-seq (MBP pull-down with sequencing); 20 mM Tris-HCl pH 7.5, 100 mM NaCl, 1.5 mM MgCl2, 0.4 uM protein, 0.1 uM dsDNA library, 30 min, room temperature, amylose pull-down; high values mean tight binding
# Condition Parameters: protein: recombinant; tags: His6-MBP; chain copies: 2; dsDNA, one strand shown
The full ranking holds about 16,000 sequences; the median of “rpm ratio (pull-down/input)” is about 0.94, and the highest 2% start at about 1.7. Shown is part of a subset that was picked to be rich in the highest values.

Macromolecule Sequence | binding signal
GATGATTGTTCTCCCAGCTGATGAATTGGCGCTATCGAGTAAACAAATTTTCCTAATCTTTCTGTTCAAGCGCCATCTAC | 0.954 RPM ratio (pull-down/input)
GATGATTGTTCTCCCAGCTGATGAATTCCTGTATTCGAGTAAACAAATTTTCCTAATCTTTCTGTTCAAGCGCCATCTAC | 1.3 RPM ratio (pull-down/input)
GATGATTGTTCTCCCAGCTGATGAATTACTCCTCTCGAGTAAACAAATTTTCCTAATCTTTCTGTTCAAGCGCCATCTAC | 1.05 RPM ratio (pull-down/input)
GATGATTGTTCTCCCAGCTGATGAATTCGGTTTCTCGAGTAAACAAATTTTCCTAATCTTTCTGTTCAAGCGCCATCTAC | 0.847 RPM ratio (pull-down/input)
GATGATTGTTCTCCCAGCTGATGAATTCTTGTATTCGAGTAAACAAATTTTCCTAATCTTTCTGTTCAAGCGCCATCTAC | 1.72 RPM ratio (pull-down/input)
GATGATTGTTCTCCCAGCTGATGAATTTTTCATCTCGAGTAAACAAATTTTCCTAATCTTTCTGTTCAAGCGCCATCTAC | 0.937 RPM ratio (pull-down/input)

Source listed as paper PMC12820563.
